Target: T1, DGI-2 polypeptide (UniProt Q15004 1-111, limits assumed)
T1 construct: Soluble recombinant protein coated at 500 ng/well; vector tag of pIVEX2.3-MCS not described for this construct; also called KIAA0101
T1 sequence (looked up): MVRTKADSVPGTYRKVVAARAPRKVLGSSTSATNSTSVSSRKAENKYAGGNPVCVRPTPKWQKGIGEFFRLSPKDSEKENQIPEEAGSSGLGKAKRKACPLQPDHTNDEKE
Assay: phage ELISA
Below is a list of entries, each paired with its recorded DGI-2/LDH value.
Hi! Could you send only the number? It should be in ratio, unit omitted.

>  <binder>
SVSGGGVFGTGGRVRHQVSGAAAGAPVPYPDPLEPRP [DGI-2-20F-PP-C5]

>  <DGI-2/LDH (ratio)>
2.4

$$$$
>  <binder>
WWERFVWGRPVDDGVVVMATAAAGAPVPYPDPLEPRP [DGI-2-20R-3-B1]

>  <DGI-2/LDH (ratio)>
6.2

$$$$

Then there is this binder:
Query: Please give the measured DGI-2/LDH for this binder: GHGAGDWAAELFVCPVAFLTGFAWRAAAGAPVPYPDPLEPRP [DGI-2-20R-4-H2]
Reply: 9.2

These data points were gathered from patent US7056679.
